Target: NA transporter (Rattus norvegicus, UniProt Q63380)
Construct: synaptosomes are isolated fresh from rat brains; from tissue; host or cells: rat hypothalamus synaptosomes (P2 fraction)
Sequence (Q63380 1-617): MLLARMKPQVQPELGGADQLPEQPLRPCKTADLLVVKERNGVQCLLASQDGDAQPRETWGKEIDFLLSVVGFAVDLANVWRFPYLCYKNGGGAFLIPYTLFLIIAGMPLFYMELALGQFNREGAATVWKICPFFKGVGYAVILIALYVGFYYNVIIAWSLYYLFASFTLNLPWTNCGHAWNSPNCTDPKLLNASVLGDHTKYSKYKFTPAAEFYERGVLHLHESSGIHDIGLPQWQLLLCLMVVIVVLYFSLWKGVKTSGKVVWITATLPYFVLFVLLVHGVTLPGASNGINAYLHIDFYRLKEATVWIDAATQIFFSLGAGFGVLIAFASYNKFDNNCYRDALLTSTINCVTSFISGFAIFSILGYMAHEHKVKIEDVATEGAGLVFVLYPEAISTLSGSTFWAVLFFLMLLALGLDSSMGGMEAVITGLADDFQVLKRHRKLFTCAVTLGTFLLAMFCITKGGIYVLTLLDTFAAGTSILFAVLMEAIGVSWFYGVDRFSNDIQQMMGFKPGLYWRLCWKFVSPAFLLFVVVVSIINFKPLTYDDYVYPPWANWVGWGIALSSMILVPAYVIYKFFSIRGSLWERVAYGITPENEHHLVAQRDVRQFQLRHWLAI
Assay: synaptosomal noradrenaline uptake inhibition (NA uptake inhibition)
Assay type: biochemical
Details: read-out: NA Uptake Inhibition at 1 μM, 1 μM in the assay, synaptosomes from rat hypothalamus

Compound | inhibition at 1 µM, %
CN(C)C(c1ccc(Cl)cc1)C1CCCCC1(O)Cc1cccc(C(F)(F)F)c1.Cl (stereo not shown) [Example 63, hydrochloride] | 94
CN(C)C(c1ccccc1)C1CCCCC1(O)c1cccc2ccccc12.Cl (stereo not shown) [Example 74, hydrochloride] | 24
CN(C)C(c1ccccc1)C1CCCCC1(O)Cc1cccc(C(F)(F)F)c1.Cl (stereo not shown) [Example 36, hydrochloride] | 91
CN(C)C(c1ccccc1)C1CCCCC1(O)c1ccoc1.Cl (stereo not shown) [Example 17, hydrochloride] | 57
